# Tested on: TLR2 induced IL-6 in peripheral blood mononuclear cells (PBMCs)
# test_summary: PBMC TLR2 Induced IL-6 Assay
# Assay type: cell-based, human
# condition_notes: Homo sapiens, PBMC, 5 h, human PBMCs, 10 μg/ml lipoteichoic acid for 5 hours, IL-6 by ELISA; value without asterisk; read-out: Cell IC50
# Procedure: Peripheral blood mononuclear cells (PBMCs) were isolated from human blood containing the anti-coagulant EDTA (2.5 mM) by centrifugation over a FICOLL® gradient. PBMCs (250000 cells/well) were cultured in assay media (RPMI with 10% heat inactivated FCS) with compounds for 30 minutes at 37° C. in a 5% CO2 incubator. […] Supernatants were harvested and analyzed for IL-6 levels by ELISA (BD Biosciences, San Jose, Calif.). Inhibition was calculated as either an IC50 or EC50. […]
Kindly supply the reported IC50 values for the records listed here.
One number for each entry, in nM.

Recorded IC50, per entry:
compound | target_desc | IC50 / nM
CNC(=O)[C@H]1CC[C@H](NC(=O)c2cnc(Nc3ccc4ncsc4c3)cc2NC2CCC2)CC1 [Example 504] | TLR2 induced IL-6 in peripheral blood mononuclear cells (PBMCs) | 496
CC(C)(O)[C@H](F)CNC(=O)c1cnc(Nc2nc3ccnn3cc2F)cc1N[C@H]1CCC[C@@H]1O [Example 466] | TLR2 induced IL-6 in peripheral blood mononuclear cells (PBMCs) | 212
CC(=O)NC12CCC(Nc3cc(Nc4ccc5ncsc5c4)ncc3C(=O)NC[C@@H](F)C(C)(C)O)(CC1)C2 [Example 139] | TLR2 induced IL-6 in peripheral blood mononuclear cells (PBMCs) | 310
CC(C)(O)[C@H](F)CNC(=O)c1cnc(Nc2ccn3nccc3n2)cc1NC1CCOCC1 [Example 237] | TLR2 induced IL-6 in peripheral blood mononuclear cells (PBMCs) | 222

Next, consider the following compound.
// query IC50 value for entry CC(C)(O)[C@H](F)CNC(=O)c1cnc(Nc2ccn3nccc3c2)cc1NC1CCCC1(F)F (some centres unmarked) [Example 297]
535
